- ASSAY_SYSTEM: T1, recombinant human GPC1 protein (R&D Systems) (human, UniProt P35052 24-530)
- T1 construct: Bought recombinant protein (R&D Systems); also called human GPC-1 antigen; Glypican-1
- T1 sequence: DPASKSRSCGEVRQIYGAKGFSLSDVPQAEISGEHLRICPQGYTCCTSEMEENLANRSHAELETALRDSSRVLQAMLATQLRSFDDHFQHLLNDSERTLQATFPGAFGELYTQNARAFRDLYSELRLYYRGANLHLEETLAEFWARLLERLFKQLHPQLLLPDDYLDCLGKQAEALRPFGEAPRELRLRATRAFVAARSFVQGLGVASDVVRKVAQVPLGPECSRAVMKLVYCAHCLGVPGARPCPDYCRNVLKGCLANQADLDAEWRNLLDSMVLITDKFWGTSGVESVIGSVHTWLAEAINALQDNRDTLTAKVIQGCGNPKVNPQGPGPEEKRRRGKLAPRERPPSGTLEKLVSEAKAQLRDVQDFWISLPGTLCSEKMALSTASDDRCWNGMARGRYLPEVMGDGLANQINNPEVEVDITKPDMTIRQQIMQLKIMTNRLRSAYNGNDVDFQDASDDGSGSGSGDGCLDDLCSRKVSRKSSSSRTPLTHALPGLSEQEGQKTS
- TEST: SPR (Biacore 8K); antibody captured by anti-human IgG (Fc) on a CM5 chip, recombinant human GPC1 flowed over
METRIC: koff
Your answer should be a number followed by the unit of measure.

Dear colleague, I am looking for the recorded koff of the following binder: humanized anti-GPC1 monoclonal antibody clone T36 (antibody, human IgG4 S228P, kappa, V domains shown, IgG) VH: QVQLVQSGAEVKKPGASVKVSCKASGYTFTGYYMHWVRQAPGQGLEWMGEINPSTGDTTYNQKFKARVTMTRDTSTSTVYMELSSLRSEDTAVYYCAREKRDDGVFAYWGQGTLVTVSS VL: NIQMTQSPSSLSASVGDRVTITCQASQDISNYLNWYQQRPGKAPQLLIYGASNLERGVPSRFSGSGFGTDFTLTISSVQPEDFATYYCQQAKSYPLTFGGGTKVEIKR
0.00227 s⁻¹

And humanized anti-GPC1 monoclonal antibody clone T43 (antibody, human IgG4 S228P, kappa, V domains shown, IgG) VH: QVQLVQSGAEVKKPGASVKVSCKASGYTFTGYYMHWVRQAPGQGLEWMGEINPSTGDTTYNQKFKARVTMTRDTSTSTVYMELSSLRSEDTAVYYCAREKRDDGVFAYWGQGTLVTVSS VL: DIVMTQSPSSLSASVGDRVTITCRASQGIRSALAWYQQKPGKAPKLLIYDASNLQSGVPSRFSGSGSGTDFTLTISDVQAEDFGTYYCQQSFGPPRTFGQGTRLEIKR ?
0.0106 s⁻¹

And humanized anti-GPC1 monoclonal antibody clone T11 (antibody, human IgG4 S228P, kappa, V domains shown, IgG) VH: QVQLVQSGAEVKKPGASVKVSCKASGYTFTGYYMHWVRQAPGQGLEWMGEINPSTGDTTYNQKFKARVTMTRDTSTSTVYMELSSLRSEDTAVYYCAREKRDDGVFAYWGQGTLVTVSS VL: AIRMTQSPSSLSASVGDRVTITCRASRSISTYLHWYQQKAGKAPKLLIYSAYNLQSGVPSRFSGSGSGTDFTLTISSLQPEDFATYYCQQSYSTPYTFGQGTKVEIKR ?
0.0506 s⁻¹
